Record form. Attribute: % inhibition of farnesyltransferase at 1 × 10^-6 M. Fill in for each entry.
- assayed-target: protein farnesyltransferase (Rattus norvegicus, UniProt Q02293+Q04631)
- Construct: The enzyme is purified according to Reiss, Y., et al., Cell, 62: 81-88 (1990), utilizing steps one through three; from tissue; host or cells: rat brain
- experiment-notes: Inhibition of farnesyltransferase (scintillation proximity assay, rat brain enzyme, biotin-K Ras B fragment substrate)
- Type: biochemical
- measurement-parameters: 1 × 10^-6 M (Table 2)
Numbers only; they are read as %.

Inquiry: Look up % inhibition of farnesyltransferase at 1 × 10^-6 M: CSCC[C@H](NC(=O)c1ccc(NCC(CO)(Cc2ccccc2)Cc2ccccc2)cc1-c1ccccc1C)C(=O)O
Reply text: 21

Inquiry: Which % inhibition of farnesyltransferase at 1 × 10^-6 M is reported for this compound? CSCCC(CO)NCc1ccc(C(=O)N[C@@H](CCSC)C(=O)O)c(-c2ccccc2)c1 (some centres unmarked)
Reply text: 32

Inquiry: Returns the measured % inhibition of farnesyltransferase at 1 × 10^-6 M for the input compound. Input: CSCC[C@H](NC(=O)c1ccc(CN[C@H](CO)Cc2ccccc2)cc1-c1ccccc1C)C(=O)O
Reply text: 95

Inquiry: % inhibition of farnesyltransferase at 1 × 10^-6 M for CSCC[C@H](NC(=O)c1ccc(NC(=O)OCc2cncs2)cc1-c1ccccc1C)C(=O)O ?
Reply text: 85

Inquiry: // query % inhibition of farnesyltransferase at 1 × 10^-6 M value for entry CSCCC(NC(=O)c1ccc(CNC(CO)c2ccccc2)cc1-c1ccccc1)C(=O)O (centres unmarked) [Example 657]
Reply text: 32

Inquiry: Recorded % inhibition of farnesyltransferase at 1 × 10^-6 M of CCOC(=O)c1ccc(NCc2ccc(C(=O)N[C@@H](CCSC)C(=O)O)c(-c3ccccc3)c2)cc1 , please.
Reply text: 58

Inquiry: Requested read-out: % inhibition of farnesyltransferase at 1 × 10^-6 M. Entry: COC(=O)[C@H](CCSC)NC(=O)c1ccc(NC(=O)[C@@H]2CSCN2)cc1-c1ccccc1.Cl
Reply text: 92

Inquiry: What does the record list as % inhibition of farnesyltransferase at 1 × 10^-6 M for CCSC[C@H](CC1CCCCC1)NCc1ccc(C(=O)N(C)[C@@H](CCSC)C(=O)O)c(-c2ccccc2C)c1 ?
Reply text: 76

Inquiry: Fill in: % inhibition of farnesyltransferase at 1 × 10^-6 M of CSCC[C@H](NC(=O)c1ccc(CN[C@@H](CC2CCCCC2)[C@@H](O)[C@@H](O)CC(C)C)cc1-c1ccccc1)C(=O)O is ___
Reply text: 69

Inquiry: Could you tell me which % inhibition of farnesyltransferase at 1 × 10^-6 M is on file for CSCC[C@H](NC(=O)c1ccc(OCCCc2ccccc2)cc1-c1ccccc1C)C(=O)[O-].[Li+] ?
Reply text: 95

Inquiry: I'd like to know its % inhibition of farnesyltransferase at 1 × 10^-6 M. The compound in question is CSCC[C@H](NC(=O)c1ccc(CNCCSc2ccccc2)cc1-c1ccccc1)C(=O)O
Reply text: 83

Inquiry: Returns the measured % inhibition of farnesyltransferase at 1 × 10^-6 M for the input compound. Input: CSCC[C@H](NC(=O)c1ccc(CN(CCC#N)Cc2ccccc2)cc1-c1ccccc1)C(=O)O
Reply text: 86

Inquiry: What value of % inhibition of farnesyltransferase at 1 × 10^-6 M has been recorded for this entry: CSCC[C@H](NC(=O)c1ccc(COC2CCN(C(=O)OC(C)(C)C)CC2)cc1-c1ccccc1C)C(=O)[O-].[Li+]
Reply text: 88

Inquiry: Look up % inhibition of farnesyltransferase at 1 × 10^-6 M: CSCC[C@H](NC(=O)c1ccc(CN(CCO)c2ccccc2)cc1-c1ccccc1)C(=O)O
Reply text: 72

Inquiry: Item under review: COc1ccc(CNCc2ccc(C(=O)N[C@@H](CCSC)C(=O)O)c(-c3ccccc3)c2)c(OC)c1 . Reported % inhibition of farnesyltransferase at 1 × 10^-6 M?
Reply text: 35

Inquiry: Entry CSCC[C@H](NC(=O)c1ccc(CNCCC2CCCCC2)cc1-c1ccccc1C)C(=O)O.O=C(O)C(F)(F)F : reported % inhibition of farnesyltransferase at 1 × 10^-6 M = ?
Reply text: 96

Inquiry: Requested field: % inhibition of farnesyltransferase at 1 × 10^-6 M. Item: CSCC[C@H](NC(=O)c1ccc(CN(CCc2ccccc2)c2ccccc2)cc1-c1ccccc1C)C(=O)O
Reply text: 96

Inquiry: // lookup % inhibition of farnesyltransferase at 1 × 10^-6 M for CSCC[C@H](NC(=O)c1ccc(CN(CCC2CCCCC2)C(=O)N(C)C)cc1-c1ccccc1C)C(=O)O
Reply text: 94

Inquiry: So what does the record say about % inhibition of farnesyltransferase at 1 × 10^-6 M for CSCC[C@H](NC(=O)c1ccc(CNc2ccc(N3CCCCC3)cc2)cc1-c1ccccc1C)C(=O)O ?
Reply text: 95

Inquiry: # get_value(readout='% inhibition of farnesyltransferase at 1 × 10^-6 M', item= CSCC[C@H](NC(=O)c1ccc(COCc2cccs2)cc1-c1ccccc1C)C(=O)[O-].[Li+] )
Reply text: 96

meta.source: patent US6221865A
